- target or test system: SARM1 protein in iSARM1 (HEK293) cells (Homo sapiens, UniProt Q6SZW1)
- Construct: The full-length SARM1 was synthesized into the pUC57 plasmid by WZ Biosciences Inc., and PCR was performed using pUC57-SARM1 as a DNA template
- Sequence (Q6SZW1 28-724): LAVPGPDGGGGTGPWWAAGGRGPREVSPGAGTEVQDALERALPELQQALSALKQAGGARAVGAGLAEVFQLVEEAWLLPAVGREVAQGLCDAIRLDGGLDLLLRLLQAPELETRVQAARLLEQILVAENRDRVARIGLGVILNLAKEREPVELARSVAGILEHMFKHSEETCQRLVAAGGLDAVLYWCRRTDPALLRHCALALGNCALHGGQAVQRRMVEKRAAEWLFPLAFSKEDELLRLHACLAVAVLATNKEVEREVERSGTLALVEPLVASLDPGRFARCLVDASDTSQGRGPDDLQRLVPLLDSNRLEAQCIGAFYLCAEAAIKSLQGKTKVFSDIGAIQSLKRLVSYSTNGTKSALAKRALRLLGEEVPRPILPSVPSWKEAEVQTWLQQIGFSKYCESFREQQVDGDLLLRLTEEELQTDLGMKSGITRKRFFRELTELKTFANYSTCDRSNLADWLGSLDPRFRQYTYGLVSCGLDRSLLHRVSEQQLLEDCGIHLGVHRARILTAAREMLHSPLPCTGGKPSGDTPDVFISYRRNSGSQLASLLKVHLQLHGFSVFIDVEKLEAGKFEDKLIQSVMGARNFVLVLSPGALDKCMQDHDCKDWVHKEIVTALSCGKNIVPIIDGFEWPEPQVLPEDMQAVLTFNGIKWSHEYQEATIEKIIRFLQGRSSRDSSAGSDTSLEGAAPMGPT
- experiment summary: Inhibitory activity in inducible SARM1 overexpressing cell line, intracellular cADPR level
- settings: activator CZ-48 100 μM, cADPR content
- Description: In this example, the gene sequence of SARM1 was amplified using PCR, and constructed into pInducer20-neo plasmid. pInducer20-SARM1 virus was packaged in a liposome and infected HEK293 to obtain an inducible SARM1-overexpressing cell line, which was labeled as iSARM1 (HEK293). […] The cADPR content in the solution was determined through Cycling analysis method. […] The reaction kinetic curve within 30 minutes was recorded (Ex:Em=544/599). The average slope of the reaction was calculated. […]
As shown below, each of these compounds has a reported EC50 value.

[
  {
    "compound": "CNc1ccc2ncc(-c3cccc(OCCOCc4ccccc4)c3)n2c1",
    "EC50": "1000 to 10000 nM"
  },
  {
    "compound": "CN(C(=O)OC(C)(C)C)c1ccc2ncc(-c3cccc4cn[nH]c34)n2c1",
    "EC50": "1000 to 10000 nM"
  },
  {
    "compound": "CC(=O)Nc1cccc(-c2cnc3ccc(N(C)C(=O)OC(C)(C)C)cn23)c1",
    "EC50": "1000 to 10000 nM"
  },
  {
    "compound": "CN(C(=O)COC1CCOC1)c1cccc(-c2cnc3ccc(N(C)C(=O)OC(C)(C)C)cn23)c1 (stereo not drawn)",
    "EC50": "< 1000 nM"
  },
  {
    "compound": "O=C(Nc1cccc(-c2cnc3ccc(NC/C=C/c4ccccc4)cn23)c1)C1CCOCC1",
    "EC50": "< 1000 nM"
  },
  {
    "compound": "CN(C(=O)OC(C)(C)C)c1ccc2ncc(-c3ccccc3)n2c1",
    "EC50": "1000 to 10000 nM"
  },
  {
    "compound": "Nc1cccc(/C=C/CNc2ccc3ncc(-c4ccccc4)n3c2)c1",
    "EC50": "1000 to 10000 nM"
  },
  {
    "compound": "O=C(Nc1cccc(-c2cnc3ccc(N4CCOCC4)cn23)c1)[C@H]1C[C@H](N2CCOCC2)C1",
    "EC50": "1000 to 10000 nM"
  },
  {
    "compound": "NS(=O)(=O)c1cccc(-c2cnc3ccccn23)c1",
    "EC50": "1000 to 10000 nM"
  },
  {
    "compound": "CN(C(=O)OC(C)(C)C)c1ccc2ncc(-c3cccc(N)c3)n2c1",
    "EC50": "1000 to 10000 nM"
  },
  {
    "compound": "O=C(Nc1cccc(-c2cnc3ccc(N4CCOCC4)cn23)c1)[C@H]1C[C@H](N2CCCCC2)C1",
    "EC50": "< 1000 nM"
  },
  {
    "compound": "COCCOCC(=O)Nc1cccc(-c2cnc3ccc(NC(=O)C(C)(C)C)cn23)c1",
    "EC50": "1000 to 10000 nM"
  },
  {
    "compound": "CN(C(=O)OC(C)(C)C)c1ccc2ncc(-c3cccc(NC(=O)C4CCCO4)c3)n2c1 (stereo not drawn)",
    "EC50": "< 1000 nM"
  },
  {
    "compound": "c1ccc(-c2cnc3ccc(NC4CCOC4)cn23)cc1 (stereo not drawn)",
    "EC50": "1000 to 10000 nM"
  },
  {
    "compound": "CN(C(=O)OC(C)(C)C)c1ccc2ncc(-c3nn4ccnc4s3)n2c1",
    "EC50": "1000 to 10000 nM"
  },
  {
    "compound": "COCCOCC(=O)Nc1cccc(-c2cnc3ccc(NC(=O)C4CC4)cn23)c1",
    "EC50": "1000 to 10000 nM"
  },
  {
    "compound": "O=C(Nc1cccc(-c2cnc3ccc(N4CCOCC4)cn23)c1)[C@H]1C[C@@H](N2CCOCC2)C1",
    "EC50": "1000 to 10000 nM"
  },
  {
    "compound": "CNc1ccc2ncc(-c3cccc(NC(=O)COCCOCC(=O)Nc4cccc(-c5cnc6ccc(NC)cn56)c4)c3)n2c1",
    "EC50": "1000 to 10000 nM"
  },
  {
    "compound": "CC(C)(C)OC(=O)Nc1ccc2ncc(-c3cccc(NC(=O)COCCOCc4ccccc4)c3)n2c1",
    "EC50": "< 1000 nM"
  },
  {
    "compound": "CN(C(=O)OC(C)(C)C)c1ccc2ncc(-c3cccc(NC(=O)C4CCOCC4)c3)n2c1",
    "EC50": "< 1000 nM"
  },
  {
    "compound": "CNc1ccc2ncc(-c3ccccc3Cl)n2c1",
    "EC50": "1000 to 10000 nM"
  },
  {
    "compound": "CN(C(=O)OC(C)(C)C)c1ccc2ncc(-c3cccc(O)c3)n2c1",
    "EC50": "1000 to 10000 nM"
  },
  {
    "compound": "CN(C(=O)OC(C)(C)C)c1ccc2ncc(-c3cc4cc[nH]c4cn3)n2c1",
    "EC50": "1000 to 10000 nM"
  },
  {
    "compound": "CNc1ccc2ncc(-c3nccc4[nH]ccc34)n2c1",
    "EC50": "1000 to 10000 nM"
  },
  {
    "compound": "CN(C(=O)OC(C)(C)C)c1ccc2ncc(-c3cccc(C(=O)NC[C@@H]4CCO4)c3)n2c1",
    "EC50": "1000 to 10000 nM"
  },
  {
    "compound": "CN(C(=O)OC(C)(C)C)c1ccc2ncc(-c3ccn4ccnc4c3)n2c1",
    "EC50": "1000 to 10000 nM"
  },
  {
    "compound": "CN(C(=O)OC(C)(C)C)c1ccc2ncc(-c3ccc(NC(=O)c4ccccc4)s3)n2c1",
    "EC50": "1000 to 10000 nM"
  },
  {
    "compound": "CC(C)(C)OC(=O)N(C/C=C/c1cccc(NC(=O)C2CCOCC2)c1)c1ccc2ncc(-c3ccccc3)n2c1",
    "EC50": "< 1000 nM"
  },
  {
    "compound": "CN(C(=O)OC(C)(C)C)c1ccc2ncc(-c3cccc4c3CC(=O)N4)n2c1",
    "EC50": "1000 to 10000 nM"
  },
  {
    "compound": "CN(C(=O)OC(C)(C)C)c1ccc2ncc(-c3cccc(NC(=O)COCc4ccccc4)c3)n2c1",
    "EC50": "< 1000 nM"
  },
  {
    "compound": "CN(C(=O)OC(C)(C)C)c1ccc2ncc(-c3cccc(NC(=O)COC4CCOC4)c3)n2c1 (stereo not drawn)",
    "EC50": "< 1000 nM"
  },
  {
    "compound": "COC(=O)c1cccc(-c2cnc3ccc(N(C)C(=O)C(C)(C)C)cn23)c1",
    "EC50": "1000 to 10000 nM"
  },
  {
    "compound": "CN(C(=O)OC(C)(C)C)c1ccc2ncc(-c3ccncc3F)n2c1",
    "EC50": "1000 to 10000 nM"
  }
]

---

- target or test system: SARM1 protein in iSARM1 (HEK293) cells (Homo sapiens, UniProt Q6SZW1)
- Construct: The full-length SARM1 was synthesized into the pUC57 plasmid by WZ Biosciences Inc., and PCR was performed using pUC57-SARM1 as a DNA template
- experiment summary: Inhibitory activity in inducible SARM1 overexpressing cell line, intracellular cADPR level
- Format: cell-based
- settings: activator CZ-48 100 μM, cADPR content
pEC50: −log10 of the molar value.
reported property: pEC50

[
  {
    "molecule": "Cc1ncsc1-c1ccc(CNC(=O)[C@@H]2C[C@@H](O)CN2C(=O)[C@@H](NC(=O)COCCOCC(=O)Nc2cccc(-c3cnc4ccc(N(C)C(=O)OC(C)(C)C)cn34)c2)C(C)(C)C)cc1 [Compound 113]",
    "test value": "5.00 to 6.00"
  },
  {
    "molecule": "CC(C)OCCOCC(=O)Nc1cccc(-c2cnc3ccc(N(C)C(=O)OC(C)(C)C)cn23)c1 [Compound 247]",
    "test value": "> 6.00"
  },
  {
    "molecule": "Ic1cnc2ccc(-n3cccn3)cn12 [Compound 201]",
    "test value": "> 6.00"
  },
  {
    "molecule": "CN(C(=O)OC(C)(C)C)c1ccc2ncc(-c3cccc4ncccc34)n2c1 [Compound 262]",
    "test value": "> 6.00"
  },
  {
    "molecule": "CNc1ccc2ncc(-c3cccc(CN)c3)n2c1 [Compound 274]",
    "test value": "5.00 to 6.00"
  },
  {
    "molecule": "COCCOCC(=O)Nc1ccc(-c2cnc3ccc(N(C)C(=O)OC(C)(C)C)cn23)cc1 [Compound 50]",
    "test value": "5.00 to 6.00"
  },
  {
    "molecule": "CN(C(=O)OC(C)(C)C)c1ccc2ncc(-c3cccc(NC(=O)COCCOCCOCC(=O)Nc4cccc(-c5cnc6ccc(N(C)C(=O)OC(C)(C)C)cn56)c4)c3)n2c1 [Compound 121]",
    "test value": "> 6.00"
  },
  {
    "molecule": "COCCOCC(=O)Nc1cccc(-c2cnc3ccc(N(C)C(=O)OC(C)(C)C)cn23)c1 [Compound 47]",
    "test value": "> 6.00"
  }
]
